Exercise: state measured Kd for each of the molecules provided.
TARGET: Fc-fusion protein of human PSMA (hPSMA-Fc) (Homo sapiens)
Construct: purchased Acro Biosystems PSA-H5264
Sequence (Q04609 44-750 limits assumed): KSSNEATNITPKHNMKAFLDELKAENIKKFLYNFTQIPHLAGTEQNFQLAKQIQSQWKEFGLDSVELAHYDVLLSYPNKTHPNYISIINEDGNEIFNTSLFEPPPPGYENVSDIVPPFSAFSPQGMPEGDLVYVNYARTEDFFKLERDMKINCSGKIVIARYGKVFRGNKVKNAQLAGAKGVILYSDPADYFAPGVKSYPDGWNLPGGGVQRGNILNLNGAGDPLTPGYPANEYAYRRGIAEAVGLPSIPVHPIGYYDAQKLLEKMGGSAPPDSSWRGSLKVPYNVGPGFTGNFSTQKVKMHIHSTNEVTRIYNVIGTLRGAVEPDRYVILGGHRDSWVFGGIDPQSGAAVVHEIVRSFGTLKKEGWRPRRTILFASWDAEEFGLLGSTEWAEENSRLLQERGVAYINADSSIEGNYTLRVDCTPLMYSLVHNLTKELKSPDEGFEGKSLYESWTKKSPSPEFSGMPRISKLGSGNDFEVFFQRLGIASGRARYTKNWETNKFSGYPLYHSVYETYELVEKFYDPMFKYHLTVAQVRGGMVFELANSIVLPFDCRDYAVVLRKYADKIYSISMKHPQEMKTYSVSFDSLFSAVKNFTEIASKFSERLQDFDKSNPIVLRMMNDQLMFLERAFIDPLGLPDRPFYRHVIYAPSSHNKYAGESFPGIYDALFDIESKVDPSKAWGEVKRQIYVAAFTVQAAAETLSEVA
METHOD: Surface plasmon resonance assay (Biacore T200, single cycle kinetic)
Format: binding
TEST_CONTEXT: SPR, hPSMA-Fc, single cycle kinetic, 25° C.; category; read-out: pKD CAT (converted)
Numbered stars: 1 amine (or outer) side, 2 acyl side, 3 side chain; on linkers, the order of the positions; unused ones are H or OH. Bridge positions count the residues as written; N and C are the ends. Square brackets hold non-standard residues; d marks the D form. Peptide text beside a SMILES is read from it. * marks the point of attachment. X3 = O=C(O)CN1CCN(CC(=O)O)CCN(CC(=O)NCCCOCCOCCOCCCN*)CCN(CC(=O)O)CC1; DOTA = O=C(O)CN1CCN(CC(=O)O)CCN(CC(=O)*)CCN(CC(=O)O)CC1; Phe(4-Cl) = N[C@@H](Cc1ccc(Cl)cc1)C(=O)O; 1Nal = N[C@@H](Cc1cccc2ccccc12)C(=O)O; X4 = O=C(CN1CCC(N[*:1])CC1)[*:2]; Suc = O=C(CCC(=O)[*:2])[*:1]; Tle = CC(C)(C)[C@H](N)C(=O)O; 4Amb = NCc1ccc(C(=O)O)cc1; NHCH2tBu = CC(C)(C)CN*; Aib = CC(C)(N)C(=O)O

input: Tell me the measured Kd of CC(=O)N[C@H](C(=O)NC(C)(C)C(=O)N[C@@H](Cc1ccccc1)C(=O)N[C@H]1CSSC[C@@H](C(=O)NCC(C)(C)C)NC(=O)[C@H](CC(N)=O)NC(=O)C(C)(C)NC(=O)[C@H](CCCNC(=N)N)NC(=O)[C@H](CCCCN)NC1=O)[C@@H](C)O [PSM-0208] (Ac-T[Aib]FCKR[Aib]NC-NHCH2tBu; disulfide 4-9) , please.
output: 126 to 501 nM

input: Tell me the measured Kd of CC(=O)N[C@H](C(=O)NC(C)(C)C(=O)N[C@@H](Cc1cccc2ccccc12)C(=O)N[C@H]1CSSC[C@@H](C(=O)N[C@H](C(=O)N[C@H](C(=O)N[C@@H](CC(=O)O)C(N)=O)[C@@H](C)O)C(C)(C)C)NC(=O)[C@H](CC(N)=O)NC(=O)C(C)(C)NC(=O)[C@H](CCCNC(=N)N)NC(=O)[C@H](CCCCN)NC1=O)[C@@H](C)O [PSM-0249] (Ac-T[Aib][1Nal]CKR[Aib]NC[Tle]TD-NH2; disulfide 4-9) , please.
output: < 12.6 nM

input: Tell me the measured Kd of CC(=O)N[C@H](C(=O)NC(C)(C)C(=O)N[C@@H](Cc1ccccc1)C(=O)N[C@H]1CSSC[C@@H](C(=O)N[C@H](C(=O)N[C@H](C(=O)NC2CCN(CC(=O)N[C@H](CCCCNC(=O)CN3CCN(CC(=O)O)CCN(CC(=O)O)CCN(CC(=O)O)CC3)C(N)=O)CC2)[C@@H](C)O)C(C)(C)C)NC(=O)[C@H](CC(N)=O)NC(=O)C(C)(C)NC(=O)[C@H](CCCNC(=N)N)NC(=O)[C@H](CCCCN)NC1=O)[C@@H](C)O [PSM-0191] (Ac-T[Aib]FCKR[Aib]NC[Tle]T[X4][dK](DOTA)-NH2; disulfide 4-9) , please.
output: < 12.6 nM

input: Tell me the measured Kd of C[C@@H]1NC(=O)[C@H](CCCNC(=N)N)NC(=O)[C@H](CCCCN)NC(=O)[C@@H](NC(=O)[C@H](Cc2ccccc2)NC(=O)C(C)(C)NC(=O)[C@@H](NC(=O)CCC(=O)NCCCOCCOCCOCCCNC(=O)CN2CCN(CC(=O)O)CCN(CC(=O)O)CCN(CC(=O)O)CC2)[C@@H](C)O)CSSC[C@@H](C(=O)N[C@H](C(=O)N[C@H](C(N)=O)[C@@H](C)O)C(C)(C)C)NC(=O)[C@H](CC(N)=O)NC1=O [PSM-0237] ({X3-Suc}-T[Aib]FCKRANC[Tle]T-NH2; disulfide 4-9) , please.
output: < 12.6 nM

input: Tell me the measured Kd of C[C@@H](O)[C@H](NC(=O)[C@@H](NC(=O)[C@@H]1CSSC[C@H](NC(=O)[C@H](Cc2ccc(Cl)cc2)NC(=O)C(C)(C)NC(=O)CN2CCC(NC(=O)CN3CCN(CC(=O)O)CCN(CC(=O)O)CCN(CC(=O)O)CC3)CC2)C(=O)N[C@@H](CCCCN)C(=O)N[C@@H](CCCNC(=N)N)C(=O)NC(C)(C)C(=O)N[C@@H](CC(N)=O)C(=O)N1)C(C)(C)C)C(N)=O [PSM-0263] ({DOTA}-[X4][Aib][Phe(4-Cl)]CKR[Aib]NC[Tle]T-NH2; disulfide 4-9) , please.
output: < 12.6 nM

input: Tell me the measured Kd of C[C@@H](O)[C@H](NC(=O)[C@@H](NC(=O)[C@@H]1CSSC[C@H](NC(=O)[C@H](Cc2ccccc2)NC(=O)C(C)(C)NC(=O)[C@@H](NC(=O)c2ccc(CNC(=O)CN3CCN(CC(=O)O)CCN(CC(=O)O)CCN(CC(=O)O)CC3)cc2)[C@@H](C)O)C(=O)N[C@@H](CCCCN)C(=O)N[C@@H](CCCNC(=N)N)C(=O)NC(C)(C)C(=O)N[C@@H](CC(N)=O)C(=O)N1)C(C)(C)C)C(N)=O [PSM-0202] ({DOTA-4Amb}-T[Aib]FCKR[Aib]NC[Tle]T-NH2; disulfide 4-9) , please.
output: < 12.6 nM

###

TARGET: PSMA-expressing C4-2 cells (Homo sapiens, UniProt Q04609)
Construct: PSMA-expressing C4-2 cells (ATCC, Cat. No. CRL-3314) were cultured in RPMI-1640; host or cells: C4-2 cells
Sequence (Q04609 whole entry): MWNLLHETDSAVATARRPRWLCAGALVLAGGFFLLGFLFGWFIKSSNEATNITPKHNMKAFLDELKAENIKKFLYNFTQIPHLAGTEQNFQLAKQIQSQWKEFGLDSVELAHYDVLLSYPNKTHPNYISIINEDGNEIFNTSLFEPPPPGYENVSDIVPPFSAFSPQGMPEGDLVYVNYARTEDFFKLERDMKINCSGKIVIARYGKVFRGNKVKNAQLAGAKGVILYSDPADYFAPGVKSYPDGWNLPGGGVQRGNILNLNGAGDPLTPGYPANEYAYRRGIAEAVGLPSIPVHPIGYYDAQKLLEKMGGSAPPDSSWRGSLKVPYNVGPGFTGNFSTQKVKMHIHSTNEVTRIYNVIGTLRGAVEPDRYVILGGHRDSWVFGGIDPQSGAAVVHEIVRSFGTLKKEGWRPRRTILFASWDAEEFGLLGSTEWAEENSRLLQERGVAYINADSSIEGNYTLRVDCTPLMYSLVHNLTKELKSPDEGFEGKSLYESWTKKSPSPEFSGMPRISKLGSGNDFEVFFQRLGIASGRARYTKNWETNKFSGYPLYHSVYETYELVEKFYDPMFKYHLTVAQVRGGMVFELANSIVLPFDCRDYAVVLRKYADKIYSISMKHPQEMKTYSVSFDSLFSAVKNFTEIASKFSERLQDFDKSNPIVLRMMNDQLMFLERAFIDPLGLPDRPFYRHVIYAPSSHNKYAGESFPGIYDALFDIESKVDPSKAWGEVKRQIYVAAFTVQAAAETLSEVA
METHOD: FACS binding assay (competition with 50 nM PSM-0183)
TEST_CONTEXT: FACS binding, PSMA-expressing C4-2 cells; pIC50 category; read-out: pIC50 [C4-2] CAT (converted)
Numbered stars: 1 amine (or outer) side, 2 acyl side, 3 side chain; on linkers, the order of the positions; unused ones are H or OH. Bridge positions count the residues as written; N and C are the ends. Square brackets hold non-standard residues; d marks the D form. Peptide text beside a SMILES is read from it. * marks the point of attachment. TtdsdLys(DOTA)NH2 = NC(=O)[C@@H](CCCCNC(=O)CN1CCN(CC(=O)O)CCN(CC(=O)O)CCN(CC(=O)O)CC1)NC(=O)CCC(=O)NCCCOCCOCCOCCCN*; DOTA = O=C(O)CN1CCN(CC(=O)O)CCN(CC(=O)*)CCN(CC(=O)O)CC1; Phe(4-Cl) = N[C@@H](Cc1ccc(Cl)cc1)C(=O)O; Arg(Me) = CNC(=N)NCCC[C@H](N)C(=O)O; 3Pal = N[C@@H](Cc1cccnc1)C(=O)O; X1 = O=C(CC1CCN([*:1])CC1)[*:2]; Lys(Me) = CNCCCC[C@H](N)C(=O)O; Tle = CC(C)(C)[C@H](N)C(=O)O; 4Amb = NCc1ccc(C(=O)O)cc1; Hexanoyl = CCCCCC(=O)*; Aib = CC(C)(N)C(=O)O
Exercise: state measured IC50 for each of the molecules provided.

input: Tell me the measured IC50 of CCCCCC(=O)N[C@H](C(=O)NC(C)(C)C(=O)N[C@@H](Cc1ccccc1)C(=O)N[C@H]1CSSC[C@@H](C(=O)N[C@H](C(=O)N[C@H](C(=O)NCCCOCCOCCOCCCNC(=O)CCC(=O)N[C@H](CCCCNC(=O)CN2CCN(CC(=O)O)CCN(CC(=O)O)CCN(CC(=O)O)CC2)C(N)=O)[C@@H](C)O)C(C)(C)C)NC(=O)[C@H](CC(N)=O)NC(=O)C(C)(C)NC(=O)[C@H](CCC(N)=O)NC(=O)[C@H](CCCCN)NC1=O)[C@@H](C)O [PSM-0289] (Hexanoyl-T[Aib]FCKQ[Aib]NC[Tle]T-{TtdsdLys(DOTA)NH2}; disulfide 4-9) , please.
output: 200 to 1260 nM

input: Tell me the measured IC50 of CNCCCC[C@@H]1NC(=O)[C@@H](NC(=O)[C@H](Cc2cccnc2)NC(=O)C(C)(C)NC(=O)[C@@H](NC(=O)CC2CCN(C(=O)CN3CCN(CC(=O)O)CCN(CC(=O)O)CCN(CC(=O)O)CC3)CC2)[C@@H](C)O)CSSC[C@@H](C(=O)N[C@H](C(=O)N[C@H](C(N)=O)[C@@H](C)O)C(C)(C)C)NC(=O)[C@H](CC(N)=O)NC(=O)C(C)(C)NC(=O)[C@H](CCCNC(=N)NC)NC1=O [PSM-0296] ({DOTA}-[X1]T[Aib][3Pal]C[Lys(Me)][Arg(Me)][Aib]NC[Tle]T-NH2; disulfide 5-10) , please.
output: 200 to 1260 nM

input: Tell me the measured IC50 of C[C@@H](O)[C@H](NC(=O)[C@@H](NC(=O)[C@@H]1CSSC[C@H](NC(=O)[C@H](Cc2ccc(Cl)cc2)NC(=O)C(C)(C)NC(=O)c2ccc(CNC(=O)CN3CCN(CC(=O)O)CCN(CC(=O)O)CCN(CC(=O)O)CC3)cc2)C(=O)N[C@@H](CCCCN)C(=O)N[C@@H](CCCNC(=N)N)C(=O)NC(C)(C)C(=O)N[C@@H](CC(N)=O)C(=O)N1)C(C)(C)C)C(N)=O [PSM-0283] ({DOTA-4Amb}-[Aib][Phe(4-Cl)]CKR[Aib]NC[Tle]T-NH2; disulfide 3-8) , please.
output: < 200 nM
